What TGI was measured for each of the following?
tested on: RXF-631 renal; assay: NCI tumour cell line growth inhibition, 48 h

Worked examples follow.
Enquiry: Looking for the measured TGI of CSc1cnc2ccccc2c1Sc1cn(C)c2ccccc2c1=O , can you help?
Return: 42.5 µM

Enquiry: Looking for the measured TGI of CCn1c(O)c(C(=O)Nc2cccs2)c(=O)n(CC)c1=S , can you help?
Return: 41.8 µM

Enquiry: Looking for the measured TGI of N#Cc1cccc(C2SCc3nc4ccccc4n32)c1 (stereo unspecified) , can you help?
Return: > 100 µM

Enquiry: Looking for the measured TGI of C=CC(C)(C)[C@@]12CC3C(=O)N[C@@H](Cc4ccccc4)C(=O)N3[C@@H]1N(C(C)=O)c1ccccc12 (stereo partly specified) , can you help?
Return: > 100 µM

Please state TGI for every compound in the list that follows.
1. COc1cc(Br)c(C2OCCCO2)cc1OCc1ccccc1
2. O=C(CC1(O)C(=O)Nc2ccc(Br)cc21)c1cccc([N+](=O)[O-])c1 (stereo unspecified)
3. CS(=O)(=O)Sc1ccc(Cl)cc1

Return:
> 100 µM
> 100 µM
20 µM

Please state TGI for every compound in the list that follows.
1. COC(=O)N1C=Cc2c(c(C)c3c([nH]c4ccccc43)c2C)C1C (stereo unspecified)
2. C/C(=N\NC(N)=S)c1ccc(Oc2ccccc2)cc1
3. N#CC1(C2CC(=O)N(c3ccccc3)C2=O)CCCCC1=O (stereo unspecified)
4. Cc1cc(Br)ccc1N=NC1C(=O)ON=C1c1ccccc1 (stereo unspecified)

Return:
37.5 µM
43.7 µM
> 100 µM
> 100 µM

====

system: CCRF-CEM leukemia; assay: NCI tumour cell line growth inhibition, 48 h
Parameter class (string): assigned from measured TGI. Ranges: bin A (below 40 µM), bin B (40 µM to below 80 µM), bin C (80 µM or more)

Enquiry: # classify by TGI band: COc1ccc(C2OC2C(=O)C23CC4CC(CC(C4)C2)C3)cc1 (stereo not given)
Return: bin C

Continuing:
Enquiry: # classify by TGI band: CCCCCCCC(=O)N1C2CC3CCC2(CS1(=O)=O)C3(C)C (stereo not given)
Return: bin B

Enquiry: # classify by TGI band: O=[N+]([O-])c1ccc(-c2ccc([C@H]3CC(c4cc(F)c(Cl)cc4Cl)=NN3)o2)cc1
Return: bin A

Enquiry: # classify by TGI band: C/C(=N\NC(N)=O)C(CN1CCOCC1)C(c1ccccc1)c1c(O)c2ccccc2oc1=O (stereo not given)
Return: bin C

Enquiry: # classify by TGI band: CCOC(=O)n1c(=O)nc2c3c(ncn21)Oc1c(c(-c2ccccc2)nn1-c1ccccc1)C3c1ccc(Cl)cc1 (stereo not given)
Return: bin A

Enquiry: # classify by TGI band: Nc1ncnc2c1ncn2C1SC(CO)C(O)C1O (stereo not given)
Return: bin C

Enquiry: # classify by TGI band: CCc1cccc(CC)c1NC1=CC(=O)C(=O)c2ccccc21
Return: bin C

Enquiry: # classify by TGI band: CC1(C)OC(COP2OCCO2)[C@H](COP2OCCO2)O1 (stereo not given in full)
Return: bin C

Enquiry: # classify by TGI band: O=C(CC1(O)C(=O)Nc2ccc(Br)cc21)c1cccc([N+](=O)[O-])c1 (stereo not given)
Return: bin C

Enquiry: # classify by TGI band: Cc1cc2c(=O)cc(-c3ccncc3)oc2c(C(N)=O)c1C
Return: bin C

Cited source: PubChem BioAssay (NCI)
